molecular target: human αVβ6 integrin on cells (human, UniProt P06756 31-1048; P18564 22-788); experiment: cell-based or functional assay
Sequence (P06756 31-1048, chain 1 of 2): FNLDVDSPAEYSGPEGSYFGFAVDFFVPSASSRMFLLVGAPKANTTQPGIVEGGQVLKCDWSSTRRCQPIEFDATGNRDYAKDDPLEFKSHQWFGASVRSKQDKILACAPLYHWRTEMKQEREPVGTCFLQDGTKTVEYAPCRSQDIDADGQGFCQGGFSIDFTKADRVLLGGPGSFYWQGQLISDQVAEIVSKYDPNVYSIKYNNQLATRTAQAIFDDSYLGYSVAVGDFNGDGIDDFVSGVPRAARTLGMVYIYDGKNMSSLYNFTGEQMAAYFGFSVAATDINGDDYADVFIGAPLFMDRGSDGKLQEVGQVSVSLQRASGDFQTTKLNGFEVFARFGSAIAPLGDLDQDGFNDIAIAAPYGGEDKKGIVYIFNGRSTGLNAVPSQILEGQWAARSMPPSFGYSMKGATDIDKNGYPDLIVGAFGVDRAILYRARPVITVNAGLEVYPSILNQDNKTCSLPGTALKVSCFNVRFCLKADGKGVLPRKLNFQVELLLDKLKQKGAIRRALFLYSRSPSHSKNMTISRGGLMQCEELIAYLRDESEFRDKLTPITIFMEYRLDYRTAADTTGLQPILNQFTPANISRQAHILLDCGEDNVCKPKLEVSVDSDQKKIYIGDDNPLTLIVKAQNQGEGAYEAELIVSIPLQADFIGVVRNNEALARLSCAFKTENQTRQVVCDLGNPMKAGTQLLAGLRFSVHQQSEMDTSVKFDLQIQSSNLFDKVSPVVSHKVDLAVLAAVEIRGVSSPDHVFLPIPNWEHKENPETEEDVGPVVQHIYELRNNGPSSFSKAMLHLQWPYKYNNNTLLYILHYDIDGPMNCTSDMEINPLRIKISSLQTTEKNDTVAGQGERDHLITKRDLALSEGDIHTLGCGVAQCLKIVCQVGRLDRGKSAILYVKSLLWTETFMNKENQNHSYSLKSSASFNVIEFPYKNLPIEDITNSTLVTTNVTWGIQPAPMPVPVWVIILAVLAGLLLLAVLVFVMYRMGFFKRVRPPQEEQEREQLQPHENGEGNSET
Sequence (P18564 22-788, chain 2 of 2): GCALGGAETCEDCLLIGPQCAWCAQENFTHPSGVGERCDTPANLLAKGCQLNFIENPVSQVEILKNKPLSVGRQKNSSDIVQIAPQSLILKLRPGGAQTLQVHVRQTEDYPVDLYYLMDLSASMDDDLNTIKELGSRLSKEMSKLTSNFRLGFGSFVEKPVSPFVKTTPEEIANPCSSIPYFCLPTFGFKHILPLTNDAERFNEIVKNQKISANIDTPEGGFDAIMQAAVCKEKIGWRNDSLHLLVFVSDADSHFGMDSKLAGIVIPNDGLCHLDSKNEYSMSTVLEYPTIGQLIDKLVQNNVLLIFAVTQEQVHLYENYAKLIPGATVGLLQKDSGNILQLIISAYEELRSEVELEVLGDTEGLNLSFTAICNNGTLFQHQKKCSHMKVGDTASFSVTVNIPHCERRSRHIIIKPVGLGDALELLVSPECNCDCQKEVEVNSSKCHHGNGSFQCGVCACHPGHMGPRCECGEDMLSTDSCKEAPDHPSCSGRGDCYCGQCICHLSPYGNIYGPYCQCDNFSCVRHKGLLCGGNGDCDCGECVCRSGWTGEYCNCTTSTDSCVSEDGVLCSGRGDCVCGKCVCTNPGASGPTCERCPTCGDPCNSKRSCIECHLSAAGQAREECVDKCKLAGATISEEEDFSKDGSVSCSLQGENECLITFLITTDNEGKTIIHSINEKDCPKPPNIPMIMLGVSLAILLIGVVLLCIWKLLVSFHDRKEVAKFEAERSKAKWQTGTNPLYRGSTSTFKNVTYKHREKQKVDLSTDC
Kindly state Estimated IC50, n = 2 (HT29 adhesion to TGFβLAP) for each of the entries shown.
A number alone suffices; assume µg/mL.

(Q) Any idea what Estimated IC50, n = 2 (HT29 adhesion to TGFβLAP) was measured for sc 277 (antibody, V domains shown) VH: EVQLVQSGAEVKKPGESLKISCKGSGYSFPSYWIGWVRQMPGKGLEWMGIIYPGDSDTRYSPSFQGQVTISADKSISTAYLQWSSLKASDTAMYYCARHPMEDGMDVWGQGTTVTVSS VL: SYELTQPPSVSVSPGQTARITCSGDALPKKYAFWYQQKSGQAPVLVIYDDNKRPSGIPERFSGSSSGTMATLTITGAQVEDEADYYCYSTDSSGHHVFGGGTKLTVL ?
(A) 0.54

(Q) Any idea what Estimated IC50, n = 2 (HT29 adhesion to TGFβLAP) was measured for sc 161 (antibody, V domains shown) VH: EVQLVQSGAEVKKPGESLKISCKGSGYSFTSYWIGWVRQMPGKGLEWMGIIYPGDSDTRYSPSFQGQVTISADKSISTAYLQWSSLKASDTAMYYCARHGIAAAGFYYYYMDVWGQGTTVTVSS VL: EIVLTQSPDTLSLSPGERASLSCRASQNVNRNYLVWYQQKPGQAPRLLIYGTSNRATGIPDRFSGSGSGTDFTLTISRLEPEDFAVYYCQQCGSLPFTFGPGTKVDIKR ?
(A) 0.137

(Q) Any idea what Estimated IC50, n = 2 (HT29 adhesion to TGFβLAP) was measured for sc 298 (antibody, V domains shown) VH: QVQLVESGGGVVQPGRSLRLSCAASGFTFSSYGMHWVRQAPGKGLEWVAVIWYGGSNKYYADSVKGRFTISRDNSKNTLYLQMNSLRAEDTAVYYCARDLAARRGDYYYYGMDVWGQGTTVTVSS VL: SSELTQDPVVSVALGQTVRITCQGDSLRSYYLSWYQQKPGQAPVLVIYGKNNRPSGIPDRFSGSNSGNTASLTITGAQAEDEADYYCNSRDSSGNHLFGGGTKLTVL ?
(A) 0.025

Cited source: patent US20080057063A1
